The measured values listed here are drawn from PubChem BioAssay (Tox21).

experiment: qHTS assay to identify small molecule antagonists of the glucocorticoid receptor (GR) signaling pathway - cell viability counter screen (AID 720693); settings: GR-bla HeLa viability, CellTiter-Glo luminescence, 18 h, with 5 nM dexamethasone present; series mostly up to 58.5 µM; further: nearly all actives have a fitted effect of over 55% in size
Records with an inconclusive call do not appear. Activity calls are given as the source filed them. The call rests on the fitted dose curve; in most records, active means well fitted cell-killing curve with a large enough effect in the repeat runs; inconclusive means weak or mixed curves, or effect the other way; inactive means no such curve, though single readings can be large or run the other way. Residues, ends and D or L forms follow the SMILES beside them.
Classes used: active, inactive

{"columns": ["compound", "classAssignment"],
 "data": [
  ["CCCCCCOC(=O)c1cccnc1", "inactive"],
  ["O=C1c2ccccc2-c2n[nH]c3cccc1c23", "inactive"],
  ["CC(=O)OCC1=C(C(=O)O)N2C(=O)[C@@H](NC(=O)Cc3ccccc3)[C@H]2SC1", "inactive"],
  ["CC1(C)S[C@@H]2[C@H](N3C(=O)C(c4ccccc4)NC3(C)C)C(=O)N2[C@H]1C(=O)O (stereo partly drawn)", "inactive"],
  ["CCOc1cc(CC(=O)N[C@@H](CC(C)C)c2ccccc2N2CCCCC2)ccc1C(=O)O", "inactive"],
  ["CC1(C)C[C@@H]1C(=O)N/C(=C\\CCCCSC[C@H](N)C(=O)O)C(=O)O", "inactive"],
  ["CS(=O)(=O)c1ccc([C@@H](O)[C@@H](COC(=O)CN)NC(=O)C(Cl)Cl)cc1", "inactive"],
  ["CC(CNC(=O)c1cccnc1)NC(=O)c1cccnc1 (stereo not drawn)", "inactive"],
  ["N=C(N)c1ccc(/C=C/c2ccc(C(=N)N)cc2O)cc1", "inactive"],
  ["O=C1CCC/C=C\\CCCCCCCCCC1", "inactive"],
  ["O=C(CCN1CCC(c2ccccc2)C1)c1ccc2c(c1)OCCO2 (stereo not drawn)", "inactive"],
  ["CC(C)Cc1ccc([C@H](C)C(=O)O)cc1", "inactive"],
  ["NC[C@H]1O[C@H](O[C@H]2[C@H](O)[C@@H](O[C@H]3O[C@H](CO)[C@@H](O)[C@H](N)[C@H]3O)[C@H](N)C[C@@H]2N)[C@H](N)C[C@@H]1O", "inactive"],
  ["Cc1cn([C@H]2C[C@H](O)[C@@H](CO)O2)c(=O)[nH]c1=O", "inactive"],
  ["CN(C/C=C/c1ccccc1)Cc1cccc2ccccc12", "inactive"],
  ["C=C(Nc1ccc(OCC)cc1)Nc1ccc(OCC)cc1", "inactive"],
  ["CC(=O)OCC(=O)[C@@]1(O)CC[C@H]2[C@@H]3C[C@H](C)C4=CC(=O)C=C[C@]4(C)[C@H]3[C@@H](O)C[C@@]21C", "inactive"],
  ["CC[C@@H](C)[C@H](N)C(=O)O", "inactive"],
  ["CC(C)[C@H](NC(=O)[C@H](CC(=O)O)NC(=O)[C@H](CCCCN)NC(=O)[C@@H](N)CCCN=C(N)N)C(=O)N[C@@H](Cc1ccc(O)cc1)C(=O)O (H-RKDVY-OH)", "inactive"],
  ["CN1CCN(CCCN2c3ccccc3Sc3ccc(Cl)cc32)CC1", "active"],
  ["CCN(CC)C(=O)c1cccnc1", "inactive"],
  ["NC(=S)NS(=O)(=O)c1ccc(N)cc1", "inactive"],
  ["O=C(N[C@H](CO)[C@H](O)c1ccc([N+](=O)[O-])cc1)C(Cl)Cl", "inactive"],
  ["COc1ccc([C@@H]2CC(=O)c3c(O)cc(O[C@@H]4O[C@H](CO[C@@H]5O[C@@H](C)[C@H](O)[C@@H](O)[C@H]5O)[C@@H](O)[C@H](O)[C@H]4O)cc3O2)cc1O", "inactive"],
  ["CC(=NCc1ccccc1)c1ccccc1O", "inactive"],
  ["CC(C)(COP(=O)(O)OP(=O)(O)OC[C@H]1O[C@@H](n2cnc3c(N)ncnc32)[C@H](O)[C@@H]1OP(=O)(O)O)C(O)C(=O)NCCC(=O)NCCS (stereo partly drawn)", "inactive"],
  ["O=C(Cn1cnnn1)N[C@@H]1C(=O)N2C(C(=O)O)=C(CSc3nncs3)CS[C@H]12", "inactive"],
  ["C=CCN1C(=O)C(CC(C)C)NC1=S (stereo not drawn)", "inactive"],
  ["NC(=O)c1cc[n+](CC2=C(C(=O)O)N3C(=O)[C@@H](NC(=O)C(c4ccccc4)S(=O)(=O)[O-])[C@H]3SC2)cc1 (stereo partly drawn)", "inactive"],
  ["CCN(CC)CCOC[C@H]1O[C@@H](O)[C@H](OCCN(CC)CC)[C@@H](O)[C@@H]1O", "inactive"],
  ["CN[C@@H]1[C@@H](O[C@H]2O[C@H](CO)[C@@H](N)[C@H](O)[C@H]2O)O[C@H]2C[C@@H](N)[C@@H](O[C@H]3[C@H](O)[C@@H](O)[C@H](N)C[C@@H]3N)O[C@@H]2[C@@H]1O", "inactive"],
  ["CC1CCCCN1CCCOC(=O)c1ccccc1 (stereo not drawn)", "inactive"],
  ["Cc1ccc2nc(-c3ccc(N)cc3)sc2c1S(=O)(=O)O", "inactive"],
  ["CC(C)c1ncc([N+](=O)[O-])n1C", "inactive"],
  ["CC(C)(Oc1ccc(C2CCCc3ccccc32)cc1)C(=O)O (stereo not drawn)", "inactive"],
  ["C/C(=C\\C(=O)OCCCCCCCCC(=O)O)C[C@@H]1OC[C@H](C[C@@H]2O[C@H]2[C@@H](C)[C@H](C)O)[C@@H](O)[C@H]1O", "inactive"],
  ["O=C1CCC(c2ccc(-n3ccnc3)cc2)=NN1", "inactive"],
  ["C=C1C(=C/C=C2\\CCC[C@]3(C)[C@@H]([C@H](C)CCCC(C)C)CC[C@@H]23)C[C@@H](O)C[C@@H]1O", "active"]
]}
